Values were extracted from PubChem BioAssay (NCI).

test system: HOP-62 NSCLC; assay: NCI-60 one-dose screen, 48 h; settings: 10 µM unless noted
The panel holds about 83,000 compounds, 20% with a hit somewhere; the sample as a whole holds those more often. Activity calls are given as the source filed them. How the source made its calls: active means growth percent below 10; inactive means the rest.
Assign a class; possible classes are active, inactive

CCOC(=O)c1c(Cl)c2c(n1Cc1ccc(OC)cc1)-c1oncc1CCC2 :: inactive

INPUT: Recorded call for NS(=O)(=O)c1ccc(C(=O)N/N=C(\CS(=O)(=O)c2ccccc2)c2cc3cc(Br)ccc3o2)cc1 ?
OUTPUT: inactive

INPUT: So what was the verdict on CCCCCCCCCCCCSC1=CC(=O)C=CC1=O in this test?
OUTPUT: inactive

INPUT: Test call for this compound, please: ONc1nc(NO)c2[nH]cnc2n1
OUTPUT: inactive

INPUT: Hi, do you know how Cc1nc(NC(=O)COc2cccc(/C=C3\COc4ccccc4C3=O)c2)sc1C came out in this test?
OUTPUT: inactive

INPUT: Outcome logged for CC(C)OC1=C(Cl)C(=O)c2ccccc2C1=O in this assay:
OUTPUT: inactive

INPUT: In this assay, the call recorded for COc1cc(C2=NN(c3ccc(S(N)(=O)=O)cc3)C(c3ccc(Cl)cc3)C2)cc(OC)c1OC (stereo unspecified) was what?
OUTPUT: inactive

INPUT: Please share the test call associated with Cn1c2c(cc(S(=O)(=O)c3ccccc3)c1=O)CCc1c-2cnn1-c1cccc(Cl)c1 .
OUTPUT: inactive

INPUT: Hello, I am checking results. What call was entered for O=C(C[Si](CC(=O)c1cccc(C(F)(F)F)c1)CC(=O)c1cccc(C(F)(F)F)c1)c1cccc(C(F)(F)F)c1 ?
OUTPUT: inactive

INPUT: Outcome? COc1ccc(-c2c3c(N)c4c(nc3nc3c2c(C)nn3-c2ccccc2)CCCC4)cc1
OUTPUT: inactive

INPUT: Assay outcome for Oc1ccc2ccccc2c1C1NN=C(c2ccccc2)S1 (stereo unspecified) : what was it?
OUTPUT: inactive

INPUT: I'd appreciate the recorded outcome for Cc1cccc2c(=O)c3c(sc12)c(NCCCN)nc1ccccc13 from this test.
OUTPUT: active

INPUT: Entry O=C1CCC(N2Cc3c(C#CCCCNC(=O)c4cc5c(o4)C(=O)c4ccccc4C5=O)cccc3C2=O)C(=O)N1 (stereo unspecified) : call = ?
OUTPUT: active

INPUT: # lookup: test call for COc1ccc(/C=C2\Oc3cc(C)c(Cl)cc3C2=O)cc1OC
OUTPUT: inactive

INPUT: Assay outcome for COc1ncc(F)c(OC)n1 : what was it?
OUTPUT: inactive

INPUT: Hello, I am checking results. What call was entered for NC(=S)N/N=C1\c2ccccc2-c2c(F)c(F)c(F)c(F)c21 ?
OUTPUT: inactive

INPUT: Per the assay record, what outcome was assigned to N#Cc1c(-c2cccc(F)c2)cc(-c2ccc(Br)s2)[nH]c1=O ?
OUTPUT: inactive

###

Listed next: entries and their corresponding growth.
tested on: CCRF-CEM leukemia; assay: NCI-60 one-dose screen, 48 h (100 = growth as untreated, 0 = no growth, -100 = all killed); conditions: 10 µM unless noted
Compounds without any hit were thinned out: in the full panel of roughly 83,000, 20% have a hit.
Write the answer as a number in %, unit excluded.

Look over these answered cases.
Nc1cc2[nH]c(=O)c3ccccc3c2cc1Br :: 81.2
N#Cc1c(-c2cccc(F)c2)cc(-c2ccc(Br)s2)[nH]c1=O :: 90.7
CCCN(CCC)c1ccc(/C=C/c2ccc3cc(OCC)ccc3n2)cc1 :: 63.4
COc1ccc(-c2nc3sc(C)nn3c2-c2nc3cc(C)c(C)cc3[nH]2)cc1 :: 85.9

INPUT: Can you look up growth on CCRF-CEM leukemia for COc1cc(/C=C2\C(=O)Nc3ccccc32)cc(OC)c1O ?
OUTPUT: 26.7

INPUT: Report growth for COc1ccc(C(=O)C2=CC(=O)C(=O)C2)cc1OC tested on CCRF-CEM leukemia.
OUTPUT: 95.3

INPUT: # query: growth | item COc1cc2oc(-c3ccc(O)cc3)cc(=O)c2c(O)c1I | system: CCRF-CEM leukemia
OUTPUT: 94.9

INPUT: Provide value of growth for this record tested with CCRF-CEM leukemia: COc1cccc(OC(=O)c2ccccc2)c1OC(=O)c1ccccc1
OUTPUT: 87.6

INPUT: # get_value(readout= growth, system= CCRF-CEM leukemia) for COc1cccc(C2C3=C(COC3=O)N(CCO)c3cc4c(cc32)CCC4)c1 (stereo unspecified)
OUTPUT: 20.9

INPUT: Recall the recorded growth for COc1ccc(C(=O)COc2cccc(/C=C3\CSc4ccc(C)cc4C3=O)c2)cc1 with CCRF-CEM leukemia and state it.
OUTPUT: -9.38

INPUT: Request - read-out growth | tested on CCRF-CEM leukemia | compound CCCCC(=O)N/N=C/c1cc(I)cc(I)c1O
OUTPUT: 14.9
